Data origin: patent US11299510B2

System: K562 (human acute myeloid leukemia)
assay.text: cytotoxic MTS test, K562
Format: cell-based
settings: K562 cells
Reported values of IC50 for individual entries

{"chemical.smiles": "CN(C)c1ncnc2c1c1ncccc1n2[C@@H]1O[C@H](CO)[C@@H](O)[C@H]1O", "IC50": "> 50 µM"}
{"chemical.smiles": "OC[C@H]1O[C@@H](n2c3cccnc3c3c(-c4ccoc4)ncnc32)[C@H](O)[C@@H]1O", "IC50": "> 50 µM"}
{"chemical.smiles": "CSc1ncnc2c1c1ncccc1n2[C@@H]1O[C@H](CO)[C@@H](O)[C@H]1O", "IC50": "> 50 µM"}
{"chemical.smiles": "CSc1ncnc2c1c1ccncc1n2[C@@H]1O[C@H](CO)[C@@H](O)[C@H]1O", "IC50": "0.2 to 0.9 µM"}
